// reported AC50 per item
Experimental system: Voltage-dependent L-type calcium channel subunit alpha-1C (Rattus norvegicus, UniProt P22002); also: assay procedure not described here
Sequence (P22002 whole entry): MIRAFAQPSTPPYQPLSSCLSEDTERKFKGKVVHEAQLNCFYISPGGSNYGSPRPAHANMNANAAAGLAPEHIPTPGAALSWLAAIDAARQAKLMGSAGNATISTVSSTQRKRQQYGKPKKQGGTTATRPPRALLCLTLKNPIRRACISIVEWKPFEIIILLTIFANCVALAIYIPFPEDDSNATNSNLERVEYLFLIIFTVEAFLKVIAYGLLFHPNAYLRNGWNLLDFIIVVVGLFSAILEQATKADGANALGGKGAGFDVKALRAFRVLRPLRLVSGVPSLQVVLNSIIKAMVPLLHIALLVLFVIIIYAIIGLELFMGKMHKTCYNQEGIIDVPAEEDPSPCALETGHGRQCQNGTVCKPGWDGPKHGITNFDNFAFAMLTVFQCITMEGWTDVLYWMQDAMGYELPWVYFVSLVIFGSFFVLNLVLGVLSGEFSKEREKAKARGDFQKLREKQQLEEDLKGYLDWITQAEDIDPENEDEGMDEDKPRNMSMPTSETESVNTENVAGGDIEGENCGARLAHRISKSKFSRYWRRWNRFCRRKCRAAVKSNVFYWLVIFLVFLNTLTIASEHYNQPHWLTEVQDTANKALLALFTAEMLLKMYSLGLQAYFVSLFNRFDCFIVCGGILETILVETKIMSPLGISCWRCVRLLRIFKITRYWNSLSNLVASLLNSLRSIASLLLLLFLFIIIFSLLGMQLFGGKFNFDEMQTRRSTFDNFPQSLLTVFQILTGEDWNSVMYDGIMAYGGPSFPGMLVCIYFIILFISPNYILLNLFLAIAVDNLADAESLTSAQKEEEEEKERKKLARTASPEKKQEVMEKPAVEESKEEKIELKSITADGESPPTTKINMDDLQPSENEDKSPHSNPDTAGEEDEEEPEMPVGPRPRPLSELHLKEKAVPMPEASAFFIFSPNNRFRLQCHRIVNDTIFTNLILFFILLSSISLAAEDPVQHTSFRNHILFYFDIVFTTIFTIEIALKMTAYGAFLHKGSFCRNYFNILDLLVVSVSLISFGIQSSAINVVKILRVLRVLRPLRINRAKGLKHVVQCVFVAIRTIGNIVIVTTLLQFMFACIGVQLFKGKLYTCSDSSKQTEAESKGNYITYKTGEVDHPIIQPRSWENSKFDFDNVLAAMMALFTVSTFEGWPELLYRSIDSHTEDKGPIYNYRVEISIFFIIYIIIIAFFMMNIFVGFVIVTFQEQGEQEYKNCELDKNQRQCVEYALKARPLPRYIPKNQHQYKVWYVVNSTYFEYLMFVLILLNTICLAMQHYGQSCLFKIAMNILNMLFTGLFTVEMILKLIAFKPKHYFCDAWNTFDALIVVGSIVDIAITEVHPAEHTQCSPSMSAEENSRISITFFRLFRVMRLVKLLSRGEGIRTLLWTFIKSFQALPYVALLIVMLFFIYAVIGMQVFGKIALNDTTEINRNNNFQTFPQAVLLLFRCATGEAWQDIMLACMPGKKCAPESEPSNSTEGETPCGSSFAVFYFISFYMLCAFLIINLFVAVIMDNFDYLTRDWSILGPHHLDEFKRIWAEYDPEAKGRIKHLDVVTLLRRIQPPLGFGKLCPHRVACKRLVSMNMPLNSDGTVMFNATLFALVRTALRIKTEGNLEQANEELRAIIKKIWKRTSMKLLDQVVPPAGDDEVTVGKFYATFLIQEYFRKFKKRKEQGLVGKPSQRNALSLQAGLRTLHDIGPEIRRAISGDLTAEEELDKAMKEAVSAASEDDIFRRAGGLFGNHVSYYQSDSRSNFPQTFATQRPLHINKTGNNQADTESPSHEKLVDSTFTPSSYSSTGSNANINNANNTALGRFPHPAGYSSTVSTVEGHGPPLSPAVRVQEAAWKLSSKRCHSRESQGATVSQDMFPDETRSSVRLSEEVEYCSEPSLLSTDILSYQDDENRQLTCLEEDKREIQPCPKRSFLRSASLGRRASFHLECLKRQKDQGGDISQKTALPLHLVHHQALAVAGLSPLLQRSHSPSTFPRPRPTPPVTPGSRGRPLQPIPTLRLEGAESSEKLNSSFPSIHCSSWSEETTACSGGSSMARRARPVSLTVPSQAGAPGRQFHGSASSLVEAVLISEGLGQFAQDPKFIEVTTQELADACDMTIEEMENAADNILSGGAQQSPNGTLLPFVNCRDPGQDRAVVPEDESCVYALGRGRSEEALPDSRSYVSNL
Assay type: functional

COc1ccc(-c2noc(CC(=O)O)c2-c2ccc(OC)cc2)cc1 [MOFEZOLAC] = > 30 µM
OCc1cc(C(O)CNCCCCCCOCCCCc2ccccc2)ccc1O (stereo not drawn) [SALMETEROL] = > 10 µM
CC(=O)[C@]1(O)Cc2c(O)c3c(c(O)c2[C@@H](O[C@H]2C[C@H](N)[C@H](O)[C@H](C)O2)C1)C(=O)c1ccccc1C3=O [IDARUBICIN] = > 30 µM

CC(=O)SC[C@@H](C)C(=O)N1CCC[C@H]1C(=O)N[C@@H](Cc1ccccc1)C(=O)O has a reported AC50 of > 30 µM

CC(CCc1ccc(O)cc1)NCCc1ccc(O)c(O)c1 (stereo not drawn) [DOBUTAMINE] has a reported AC50 of > 30 µM

C[C@H](Cc1ccc(O)c(O)c1)[C@@H](C)Cc1ccc(O)c(O)c1 [MASOPROCOL] has a reported AC50 of > 10 µM

CCN(CC)CCNC(=O)c1cc(S(C)(=O)=O)ccc1OC [TIAPRIDE] has a reported AC50 of > 30 µM

C[C@H]1c2cccc(O)c2C(=O)C2=C(O)[C@]3(O)C(=O)C(C(N)=O)=C(O)[C@@H](N(C)C)[C@@H]3[C@@H](O)[C@@H]21 [DOXYCYCLINE] has a reported AC50 of > 10 µM

###

Experimental system: UniProtKB P0DMS8
Sequence (P0DMS8 whole entry): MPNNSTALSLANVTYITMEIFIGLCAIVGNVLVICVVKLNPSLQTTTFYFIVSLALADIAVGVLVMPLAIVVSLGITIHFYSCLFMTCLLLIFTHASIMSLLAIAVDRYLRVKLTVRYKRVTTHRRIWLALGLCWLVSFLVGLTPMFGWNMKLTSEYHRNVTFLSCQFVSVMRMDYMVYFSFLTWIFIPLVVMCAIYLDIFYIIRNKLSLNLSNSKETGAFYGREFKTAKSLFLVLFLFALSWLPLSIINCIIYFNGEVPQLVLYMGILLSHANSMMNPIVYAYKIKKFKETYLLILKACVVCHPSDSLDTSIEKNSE
// reported AC50 per item

CC(C)c1nc(N(C)S(C)(=O)=O)nc(-c2ccc(F)cc2)c1/C=C/[C@@H](O)C[C@@H](O)CC(=O)O = > 30 µM

Form field, AC50 with UniProtKB P0DMS8, item C/N=C(\NC)NCc1ccccc1 : > 30 µM

Form field, AC50 with UniProtKB P0DMS8, item CN(C)CC[C@@H](c1ccc(Cl)cc1)c1ccccn1 : > 30 µM

Form field, AC50 with UniProtKB P0DMS8, item CCOC(=O)C1=C[C@]2(CC)CCCN3CCc4c(n1c1ccccc41)[C@@H]32 : > 30 µM

Form field, AC50 with UniProtKB P0DMS8, item OCc1cc(C(O)CNCCCCCCOCCCCc2ccccc2)ccc1O (configuration not stated) : > 30 µM

Form field, AC50 with UniProtKB P0DMS8, item C#CCOc1ccc(N)cc1C(=O)NCCCC [PARSALMIDE] : > 30 µM

Form field, AC50 with UniProtKB P0DMS8, item CC1=C(C)C(=O)C(C(CCCCCC(=O)O)c2ccccc2)=C(C)C1=O (configuration not stated) : > 30 µM
